ASSAY SYSTEM: JAK3 (Homo sapiens (Human))
Sequence (P52333 795-1124): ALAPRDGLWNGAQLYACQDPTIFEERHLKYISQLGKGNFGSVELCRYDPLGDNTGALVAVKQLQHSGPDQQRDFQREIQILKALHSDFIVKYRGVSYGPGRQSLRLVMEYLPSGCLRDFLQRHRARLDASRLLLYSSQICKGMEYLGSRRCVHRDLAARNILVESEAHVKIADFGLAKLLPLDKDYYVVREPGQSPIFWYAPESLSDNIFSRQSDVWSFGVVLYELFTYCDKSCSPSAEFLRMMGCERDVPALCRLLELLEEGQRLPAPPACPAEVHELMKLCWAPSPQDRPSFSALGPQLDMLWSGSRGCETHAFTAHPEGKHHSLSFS
ASSAY NOTES: In vitro JAK kinase assay (TR-FRET), JAK3
RECORDED CONDITIONS: catalytic domain aa 795-1124, GST-fusion; ATP 0.6 μM; peptide 140 nM; 30 minutes at room temperature
Method: Compounds were screened for their ability to inhibit JAK1, JAK2 and JAK3 using the assays as indicated below. […] The enzymatic activity was assayed using as substrate a biotinylated peptide, poly (GT)-Biotin (CisBio). […] The degree of phosphorylation was detected by TR-FRET (time-resolved fluorescence energy transfer). […] Incubate for 3 h and read on Victor 2V spectrofluorometer (Perkin Elmer) set to read fluorescence resonance energy transfer.
RECORDED METRIC: IC50 (nM)

Check out these entries, answers already filled in.
I have this molecule here, Cc1cc(-c2nc(-c3cnn4ccccc34)nc(N[C@@H]3CCCN(C(=O)CO)C3)c2F)cc(C)n1 [Example 86] , and I need its recorded IC50.
1

I have this molecule here, O=C(CO)N1CCC[C@@H](Nc2nc(-c3cnn4ccccc34)nc(OCC(F)(F)F)c2F)C1 [Example 49] , and I need its recorded IC50.
14

I have this molecule here, N#CCC(=O)N1CCC[C@@H](Nc2nc(-c3cnn4ccccc34)nc(-c3ccnc(CO)c3)c2F)C1 [Example 78] , and I need its recorded IC50.
1

a: O=C(CO)N1CCC[C@@H](Nc2nc(-c3cnn4ccccc34)nc(-c3ccc(CO)nc3)c2F)C1 [Example 84]
b: N#CCC(=O)N1CCC[C@@H](Oc2nc(-c3cnn4ccccc34)nc(-c3ccnc(CO)c3)c2F)C1 [Example 73]
Hi, I'm comparing a with b and wondering which one has the bigger number for IC50. Any idea? Label of pick, please.
b
(b: 27 nM, a: 5 nM)

1: COc1cc(-c2cc(N[C@@H]3CCCN(C(=O)CO)C3)nc(-c3cnn4ccccc34)n2)ccn1 [Example 98]
2: C[C@H](CO)Oc1nc(-c2cnn3ccccc23)nc(N[C@@H]2CCCN(C(=O)CO)C2)c1F [Example 61]
3: COCCOc1cc(N[C@@H]2CCCN(C(=O)CC#N)C2)nc(-c2cnn3ccccc23)n1 [Example 97]
4: Cc1cc(-c2nc(-c3cnn4ccccc34)nc(N(C)[C@@H]3CCCN(C(=O)CO)C3)c2F)ccn1 [Example 77]
Sort the molecules on IC50; start with the lowest figure. Would you mind listing the labels in the order asked for?
3, 1, 2, 4

1: COc1nc(-c2cnn3ccccc23)nc(O[C@@H]2CCCN(C(=O)CO)C2)c1F [Example 63]
2: COCCOc1cc(N[C@@H]2CCCN(C(=O)CO)C2)nc(-c2cnn3ccccc23)n1 [Example 96]
For 1 and 2 , which recorded IC50 is lower? Label of pick, please.
2

P: N#Cc1cnc(N2CCC[C@@H](Nc3nc(-c4cnn5ccccc45)nc(OCCO)c3F)C2)nc1 [Example 57]
Q: COc1nc(-c2cnn3ccccc23)nc(N[C@@H]2CCCN(C(=O)CO)C2)c1F [Example 42]
Hi, I'm comparing P with Q and wondering which one has the bigger number for IC50. Any idea? Label of pick, please.
P

* * *

ASSAY SYSTEM: JAK3 (Homo sapiens (Human))
ASSAY NOTES: In vitro JAK kinase assay (TR-FRET), JAK3
RECORDED CONDITIONS: catalytic domain aa 795-1124, GST-fusion; ATP 0.6 μM; peptide 140 nM; 30 minutes at room temperature
RECORDED METRIC: IC50 (nM)

Check out these entries, answers already filled in.
I have this compound here, O=C(CO)N1CCC[C@@H](Nc2nc(-c3cnn4ccccc34)nc(-c3cn[nH]c3)c2F)C1 , and I need its recorded IC50.
4

I have this compound here, N#CCC(=O)N1CCC[C@@H](Nc2cc(OCCO)nc(-c3cnn4ccccc34)n2)C1 , and I need its recorded IC50.
1

a: O=C(O)c1ccc(-c2nc(-c3cnn4ccccc34)nc(N[C@@H]3CCCN(C(=O)CO)C3)c2F)cn1
b: N#CC[C@H]1CC[C@H](Nc2nc(-c3cnn4ccccc34)nc(N3CCC(O)CC3)c2F)CC1
For a and b , which recorded IC50 is lower? Label of pick, please.
b
(b: 3 nM, a: 6 nM)

a: COC[C@H](C)Oc1nc(-c2cnn3ccccc23)nc(N[C@@H]2CCCN(C(=O)CO)C2)c1F
b: Cc1ccn2ncc(-c3nc(N[C@@H]4CCCN(C(=O)CO)C4)c(F)c(N4CCOCC4)n3)c2c1
c: Cc1ccc(-c2cc(N[C@@H]3CCCN(C(=O)CC#N)C3)nc(-c3cnn4ccccc34)n2)cn1
d: N#CC[C@H]1CC[C@H](Nc2nc(-c3cnn4ccccc34)nc(N3CCNCC3)c2F)CC1
Sort the compounds on IC50; start with the lowest figure. Would you mind listing the labels in the order asked for?
c, d, a, b
